Assay notes: Intact half-life during simulated gastric fluid (SGF) digestion
Condition info: SGF pH 1.5, pepsin:polypeptide 1:20 w/w, 37° C.; intact protein
Measurement label: SGF Half-life (t½) (s)

Substance	Unit symbol	Observed measurement
SEQID-00215: nutritive polypeptide (KKLLKDVEVLSQRLEEKALAYDKLEKTKTRLQQELDDLLVDLDHQRQIVSNLEKK; listed as Bos taurus)	s	120
SEQID-00143: nutritive polypeptide (LYLEEVSKNLVEINPLKLEVKAKPWFVYTPMHGVGFDIFSTIVKKTLCLVEGK; listed as Saccharomyces cerevisiae)	s	18
SEQID-00218: nutritive polypeptide (GTIENLEEAKKKLLKDVEVLSQRLEEKALAYDKLEKTKTRLQQELDDLLVDLDHQ; listed as Bos taurus)	s	360
SEQID-00212: nutritive polypeptide (LEEAKKKLLKDVEVLSQRLEEKALAYDKLEKTKTRLQQELDDLLVDLDHQ; listed as Bos taurus)	s	18
SEQID-00237: nutritive polypeptide (EEDKVNTLTKAKTKLEQQVDDLEGSLEQEKKLRMDLERAKRKLEGDLKLA; listed as Bos taurus)	s	36
